List of Ki tested on Carbonic anhydrase 9 (Homo sapiens, UniProt Q16790).
// return numeric value only (unit: nM, not printed)

{"smiles_record": "NS(=O)(=O)c1ccc(NC(=O)Nc2cc(S(N)(=O)=O)c(Cl)cc2Cl)cc1", "outcome_measure": "Ki", "recorded_result": 15.8}

Looking up NS(=O)(=O)c1cc(NC(=O)NCCCN2CCOCC2)c(Cl)cc1Cl , I see its Ki listed as 38

Looking up NS(=O)(=O)c1cc(C(=O)NNC(=O)c2ccco2)c(Cl)cc1Cl , I see its Ki listed as 3.9

Looking up NS(=O)(=O)c1cc(C(=O)NNC(=O)c2ccccc2)c(Cl)cc1Cl , I see its Ki listed as 10.2

* * *

- target_under_test: Carbonic anhydrase 12 (Homo sapiens, UniProt O43570)
- Sequence (O43570 whole entry): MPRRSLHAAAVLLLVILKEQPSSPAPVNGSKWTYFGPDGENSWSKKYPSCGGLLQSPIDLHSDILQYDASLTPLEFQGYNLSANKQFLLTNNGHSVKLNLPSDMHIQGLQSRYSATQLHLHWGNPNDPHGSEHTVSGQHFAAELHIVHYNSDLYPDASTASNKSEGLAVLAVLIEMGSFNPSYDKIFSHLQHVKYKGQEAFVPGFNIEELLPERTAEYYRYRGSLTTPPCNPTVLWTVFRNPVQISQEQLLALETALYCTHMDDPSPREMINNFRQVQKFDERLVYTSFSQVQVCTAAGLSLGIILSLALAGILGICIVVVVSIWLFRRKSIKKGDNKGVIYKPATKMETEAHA
outcome_measure: Ki (nM)
// return numeric value only (unit: nM, not printed)

Looking up Cc1nnc(-c2cc(S(N)(=O)=O)c(Cl)cc2Cl)o1 , I see its Ki listed as 6.3

* * *

List of Ki tested on UniProt Q16790.
// return numeric value only (unit: nM, not printed)

Reference set, count: 5
{"smiles_record": "NS(=O)(=O)c1cc(-c2nnc(Nc3ccc(Cl)cc3)o2)c(Cl)cc1Cl", "recorded_result": 15.1}
{"smiles_record": "NS(=O)(=O)c1cc(C(=O)NNC(=S)Nc2ccccc2)c(Cl)cc1Cl", "recorded_result": 31}
{"smiles_record": "NS(=O)(=O)c1cc(C(=O)NNC(=S)Nc2ccc(Cl)cc2)c(Cl)cc1Cl", "recorded_result": 27}
{"smiles_record": "NS(=O)(=O)c1cc(-c2nnc(-c3ccccc3)o2)c(Cl)cc1Cl", "recorded_result": 13.2}
{"smiles_record": "NS(=O)(=O)c1cc(NC(=O)Nc2ccccc2)c(Cl)cc1Cl", "recorded_result": 7}

In the following, a different molecule is considered.
Entry NS(=O)(=O)c1cc(-c2nnc(Nc3ccccc3)o2)c(Cl)cc1Cl : Ki on UniProt Q16790 = 13.8
